Tested on: 324938-238-R-J1-PDC complex spheroid growth, % test/control
PROTOCOL DESCRIPTION: Anticancer human tumor 324938-238-R-J1-PDC patient-derived bladder carcinoma cell line growth inhibition [AhR]
TEST CONTEXT: curve of first compound; second compound 10 µM
pIC50: −log10 of the molar value.
RECORDED ENDPOINT: pIC50

COc1cc(C2c3cc4c(cc3C(OC3OC5COC(C)OC5C(O)C3O)C3COC(=O)C23)OCO4)cc(OC)c1O (centres undefined) + Cc1cncc(-c2nc(NCCc3c[nH]c4ccccc34)c3ncn(C(C)C)c3n2)c1: > 7.50

Given the compound O=C(c1cc(Cc2n[nH]c(=O)c3ccccc23)ccc1F)N1CCN(C(=O)C2CC2)CC1 + CC(CO)NC(=O)c1cc(-c2ccc(Cl)cc2)nn(-c2cnn(C)c2)c1=O , what is its reported pIC50?
5.29

Given the compound Nc1ncn(C2CC(O)C(CO)O2)c(=O)n1 (centres undefined) + Cc1cncc(-c2nc(NCCc3c[nH]c4ccccc34)c3ncn(C(C)C)c3n2)c1 , what is its reported pIC50?
> 8.50

Given the compound COc1cc(Nc2ncc3c(n2)-c2ccc(Cl)cc2C(c2c(F)cccc2OC)=NC3)ccc1C(=O)O + Cc1cncc(-c2nc(NCCc3c[nH]c4ccccc34)c3ncn(C(C)C)c3n2)c1 , what is its reported pIC50?
> 7.50

Given the compound NS(=O)(=O)OCC1CC(n2ccc3c(NC4CCc5ccccc54)ncnc32)CC1O (centres undefined) + Cc1cncc(-c2nc(NCCc3c[nH]c4ccccc34)c3ncn(C(C)C)c3n2)c1 , what is its reported pIC50?
> 7.50

Given the compound CC1COCCN1c1cc(C2(S(C)(=N)=O)CC2)nc(-c2ccnc3[nH]ccc23)n1 (centres undefined) + Cc1cncc(-c2nc(NCCc3c[nH]c4ccccc34)c3ncn(C(C)C)c3n2)c1 , what is its reported pIC50?
> 7.50

Given the compound CCc1c2c(nc3ccc(O)cc13)-c1cc3c(c(=O)n1C2)COC(=O)[C@]3(O)CC + Cc1ccccc1N=Nc1ccc(NC(=O)c2ccnn2C)c(C)c1 , what is its reported pIC50?
8.84

Given the compound CC1(C)CCC(CN2CCN(c3ccc(C(=O)NS(=O)(=O)c4ccc(NCC5CCOCC5)c([N+](=O)[O-])c4)c(Oc4cnc5[nH]ccc5c4)c3)CC2)=C(c2ccc(Cl)cc2)C1 + Cc1cncc(-c2nc(NCCc3c[nH]c4ccccc34)c3ncn(C(C)C)c3n2)c1 , what is its reported pIC50?
> 7.50

Given the compound Cn1ncnc1C1c2n[nH]c(=O)c3cc(F)cc(c23)NC1c1ccc(F)cc1 (centres undefined) + Cc1cncc(-c2nc(NCCc3c[nH]c4ccccc34)c3ncn(C(C)C)c3n2)c1 , what is its reported pIC50?
> 9.50

###

Tested on: 324938-238-R-J1-PDC complex spheroid growth, % test/control
PROTOCOL DESCRIPTION: Anticancer human tumor 324938-238-R-J1-PDC cell line growth inhibition [AhR];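 further: spheroids exposed to agents for seven days before viability read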
TEST CONTEXT: second compound 0.316 µM; first compound 0.949 µM; stronger effect = lower value
RECORDED ENDPOINT: viability, T/C (%)
// units = %; emit number, no label

Solved entries (count: 2):
O=C(C=Cn1cnc(-c2cc(C(F)(F)F)cc(C(F)(F)F)c2)n1)NNc1cnccn1 + Cc1ccccc1N=Nc1ccc(NC(=O)c2ccnn2C)c(C)c1: 19.9
O=C(C=Cn1cnc(-c2cc(C(F)(F)F)cc(C(F)(F)F)c2)n1)NNc1cnccn1 + CC(CO)NC(=O)c1cc(-c2ccc(Cl)cc2)nn(-c2cnn(C)c2)c1=O: 19.8

Then this molecule:
Given the molecule CCN(c1cc(-c2ccc(CN3CCOCC3)cc2)cc(C(=O)NCc2c(C)cc(C)[nH]c2=O)c1C)C1CCOCC1 + Cc1cncc(-c2nc(NCCc3c[nH]c4ccccc34)c3ncn(C(C)C)c3n2)c1 , what is its reported viability, T/C?
109

###

Test system: 324938-238-R-J1-PDC complex spheroid growth, % test/control
PROTOCOL DESCRIPTION: Anticancer human tumor 324938-238-R-J1-PDC cell line growth inhibition [AhR];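 further: spheroids exposed to agents for seven days before viability read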
TEST CONTEXT: second compound 0.316 µM; first compound 3 µM; stronger effect = lower value
RECORDED ENDPOINT: viability, T/C (%)
// units = %; emit number, no label

O=C(C=Cn1cnc(-c2cc(C(F)(F)F)cc(C(F)(F)F)c2)n1)NNc1cnccn1 + CC(CO)NC(=O)c1cc(-c2ccc(Cl)cc2)nn(-c2cnn(C)c2)c1=O: 12.6
O=C(C=Cn1cnc(-c2cc(C(F)(F)F)cc(C(F)(F)F)c2)n1)NNc1cnccn1 + Cc1cncc(-c2nc(NCCc3c[nH]c4ccccc34)c3ncn(C(C)C)c3n2)c1: 37.3
CCN(c1cc(-c2ccc(CN3CCOCC3)cc2)cc(C(=O)NCc2c(C)cc(C)[nH]c2=O)c1C)C1CCOCC1 + CC(CO)NC(=O)c1cc(-c2ccc(Cl)cc2)nn(-c2cnn(C)c2)c1=O: 93.2
CCN(c1cc(-c2ccc(CN3CCOCC3)cc2)cc(C(=O)NCc2c(C)cc(C)[nH]c2=O)c1C)C1CCOCC1 + Cc1cncc(-c2nc(NCCc3c[nH]c4ccccc34)c3ncn(C(C)C)c3n2)c1: 112
O=C(C=Cn1cnc(-c2cc(C(F)(F)F)cc(C(F)(F)F)c2)n1)NNc1cnccn1 + Cc1ccccc1N=Nc1ccc(NC(=O)c2ccnn2C)c(C)c1: 11.9

Then this compound:
Missing value: viability, T/C, 324938-238-R-J1-PDC complex spheroid growth, % test/control, entry CCN(c1cc(-c2ccc(CN3CCOCC3)cc2)cc(C(=O)NCc2c(C)cc(C)[nH]c2=O)c1C)C1CCOCC1 + Cc1ccccc1N=Nc1ccc(NC(=O)c2ccnn2C)c(C)c1 . Fill in?
94.8

###

viability, T/C by entry:
System: 324938-238-R-J1-PDC complex spheroid growth, % test/control
PROTOCOL DESCRIPTION: Anticancer human tumor 324938-238-R-J1-PDC cell line growth inhibition [AhR];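 further: spheroids exposed to agents for seven days before viability read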
TEST CONTEXT: second compound 0.316 µM; first compound 0.949 µM; stronger effect = lower value
// units = %; emit number, no label

O=C(C=Cn1cnc(-c2cc(C(F)(F)F)cc(C(F)(F)F)c2)n1)NNc1cnccn1 + Cc1cncc(-c2nc(NCCc3c[nH]c4ccccc34)c3ncn(C(C)C)c3n2)c1: 47.1
CCN(c1cc(-c2ccc(CN3CCOCC3)cc2)cc(C(=O)NCc2c(C)cc(C)[nH]c2=O)c1C)C1CCOCC1 + Cc1ccccc1N=Nc1ccc(NC(=O)c2ccnn2C)c(C)c1: 108

Given the compound CCN(c1cc(-c2ccc(CN3CCOCC3)cc2)cc(C(=O)NCc2c(C)cc(C)[nH]c2=O)c1C)C1CCOCC1 + CC(CO)NC(=O)c1cc(-c2ccc(Cl)cc2)nn(-c2cnn(C)c2)c1=O , what is its reported viability, T/C?
96.6

###

System: 324938-238-R-J1-PDC complex spheroid growth, % test/control
PROTOCOL DESCRIPTION: Anticancer human tumor 324938-238-R-J1-PDC cell line growth inhibition [AhR];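 further: spheroids exposed to agents for seven days before viability read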
TEST CONTEXT: second compound 10 µM; first compound 10 µM; stronger effect = lower value
viability, T/C by entry:
// units = %; emit number, no label

Solved entries (count: 2):
O=C(C=Cc1cccc(S(=O)(=O)Nc2ccccc2)c1)NO + Cc1cncc(-c2nc(NCCc3c[nH]c4ccccc34)c3ncn(C(C)C)c3n2)c1: 0.41
CC(C)c1c(-c2ccccc2)nc2c(C#N)c[nH]n2c1=O + Cc1ccccc1N=Nc1ccc(NC(=O)c2ccnn2C)c(C)c1: 61

Given the compound COc1cc(Nc2ncc3c(n2)-c2ccc(Cl)cc2C(c2c(F)cccc2OC)=NC3)ccc1C(=O)O + Cc1cncc(-c2nc(NCCc3c[nH]c4ccccc34)c3ncn(C(C)C)c3n2)c1 , what is its reported viability, T/C?
25.6

Given the compound Nc1ccn(C2OC(CO)C(O)C2(F)F)c(=O)n1 (stereo not drawn) + Cc1ccccc1N=Nc1ccc(NC(=O)c2ccnn2C)c(C)c1 , what is its reported viability, T/C?
8.08

###

Tested on: 324938-238-R-J1-PDC complex spheroid growth, % test/control
PROTOCOL DESCRIPTION: Anticancer human tumor 324938-238-R-J1-PDC cell line growth inhibition [AhR];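 further: spheroids exposed to agents for seven days before viability read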
TEST CONTEXT: curve of first compound; second compound 3.16 µM
pIC50: −log10 of the molar value.
RECORDED ENDPOINT: pIC50

CC[C@@]1(O)C(=O)OCc2c1cc1n(c2=O)Cc2cc3c(CN(C)C)c(O)ccc3nc2-1 + Cc1cncc(-c2nc(NCCc3c[nH]c4ccccc34)c3ncn(C(C)C)c3n2)c1: < 7.00
COc1cc(Nc2ncc3c(n2)-c2ccc(Cl)cc2C(c2c(F)cccc2OC)=NC3)ccc1C(=O)O + CC(CO)NC(=O)c1cc(-c2ccc(Cl)cc2)nn(-c2cnn(C)c2)c1=O: > 7.50

Then this compound:
Given the compound CC(C)CC(NC(=O)C(Cc1ccccc1)NC(=O)c1cnccn1)B(O)O (stereo not drawn) + Cc1ccccc1N=Nc1ccc(NC(=O)c2ccnn2C)c(C)c1 , what is its reported pIC50?
8.36
